TARGET_ENTITY: Thymidine kinase, cytosolic (Homo sapiens) (UniProt P04183)
Sequence (P04183 whole entry): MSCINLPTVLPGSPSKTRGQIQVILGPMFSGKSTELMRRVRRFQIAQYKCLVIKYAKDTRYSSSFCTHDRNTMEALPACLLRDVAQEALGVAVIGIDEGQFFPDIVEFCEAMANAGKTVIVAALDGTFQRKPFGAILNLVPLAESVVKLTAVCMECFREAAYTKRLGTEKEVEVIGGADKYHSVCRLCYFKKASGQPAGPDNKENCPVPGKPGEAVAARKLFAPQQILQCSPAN
ASSAY_PROTOCOL: Activity of human TK1 relative to ATP
Set-up: concentration or dose not given beside the values
Kind request: treat 2% as inclusive, so Activity at 2% or higher is Condition met, anything lower is Condition not met.

In [3]: df
Out[3]:
                                smiles_code                             target_entity        label_class
0  Cc1cn([C@H]2C[C@H](n3cc(Cc4ccccc4)nn3)[C@@H](CO)O2)c(=O)[nH]c1=O  Thymidine kinase, cytosolic (Homo sapiens) (UniProt P04183)      Condition met
1  CCCCCc1cn([C@H]2C[C@H](n3cc(C)c(=O)[nH]c3=O)O[C@@H]2CO)nn1  Thymidine kinase, cytosolic (Homo sapiens) (UniProt P04183)  Condition not met
2  COCc1cn([C@H]2C[C@H](n3cc(C)c(=O)[nH]c3=O)O[C@@H]2CO)nn1  Thymidine kinase, cytosolic (Homo sapiens) (UniProt P04183)  Condition not met
3  Cc1cn([C@H]2C[C@H](n3cc(C(C)(C)C)nn3)[C@@H](CO)O2)c(=O)[nH]c1=O  Thymidine kinase, cytosolic (Homo sapiens) (UniProt P04183)      Condition met
4  Cc1cn([C@H]2C[C@H](n3cc(-c4ccccn4)nn3)[C@@H](CO)O2)c(=O)[nH]c1=O  Thymidine kinase, cytosolic (Homo sapiens) (UniProt P04183)      Condition met

src = ChEMBL document CHEMBL1158545
